assay: Neutral red (NR) cytotoxicity assay; assay type: cell-based; details: human, HepDES19 cells, read-out: Toxicity in HepDES19, NR (CC50)
readout-kind: CC50 at 72 h (µM)
Form entry: value (µM) — number only.

C/C(=N\c1ccccc1NO)c1c(C)cc(=O)n(O)c1O    13
O=C(Nc1ccc2c(c1)C(=O)N(O)C(=O)C2C(=O)NCc1ccc(F)cc1)c1ccccc1 (stereo not shown)    52
COc1ccc2c(c1)C(=O)N(O)C(=O)C2C(=O)NCc1ccc(F)cc1 (stereo not shown)    26

Turning now to a further record.
Fill in: CC50 at 72 h of O=C(NCc1ccc(F)cc1)C1C(=O)N(O)C(=O)c2cc(Cl)ccc21 (stereo not shown) is ___ 24

====

System: HBV replication
Test: HBV replication inhibition assay in HepDES19 cells (strand-preferential q-PCR)
Type: cell-based, Hepatitis B virus
Details: Hepatitis B virus; Table 2, HepDES19 cells; read-out: EC50
Procedure: HBV replication assay. […] Cells were seeded into 6-well plates and incubated in DMEM/F12, 10% fetal bovine serum (FBS), 1% penicillin/streptomycin (P/S) with 1 μg/mL tetracycline. Tetracycline was withdrawn after 24 hours. […] Thirty-nine HID, HPD, flutimide, and related POH compounds (Structures shown in FIG. 3) were screened for their ability to inhibit HBV replication in HepDES19 cells. […] Inhibition was calculated as the amount of plus-polarity DNA relative to the DMSO treated controls. […]
Reported EC50 is given for each of the following molecules.
Form entry: value (µM) — number only.

Here is how some molecules turned out for EC50.
COC(=O)C1C(=O)N(O)C(=O)c2ccccc21 (centres unmarked)    4
O=C(NCc1ccc(F)cc1)C1C(=O)N(O)C(=O)c2cc(Cl)ccc21 (centres unmarked)    1.6
COc1ccc(CNC(=O)C2C(=O)N(O)C(=O)c3ccccc32)cc1 (centres unmarked)    18
O=C(NCc1ccccc1)C1C(=O)N(O)C(=O)c2ccccc21 (centres unmarked)    6.5

Turning now to a further record.
Fill in: EC50 of O=C(Nc1ccc2c(c1)C(=O)N(O)C(=O)C2C(=O)NCc1ccc(F)cc1)c1ccccc1 (centres unmarked) is ___ 1.4

====

Target chain: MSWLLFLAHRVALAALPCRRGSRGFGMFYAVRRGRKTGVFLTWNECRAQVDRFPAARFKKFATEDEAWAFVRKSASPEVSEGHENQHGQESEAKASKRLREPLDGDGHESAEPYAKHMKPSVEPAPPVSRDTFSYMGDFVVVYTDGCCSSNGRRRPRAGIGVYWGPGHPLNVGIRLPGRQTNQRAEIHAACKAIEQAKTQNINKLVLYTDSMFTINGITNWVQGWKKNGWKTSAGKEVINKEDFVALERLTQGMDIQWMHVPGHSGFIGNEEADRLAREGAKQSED
readout-kind: IC50 (µM)
Form entry: value (µM) — number only.

O=C(Nc1ccc2c(c1)C(=O)N(O)C(=O)C2C(=O)NCc1ccc(F)cc1)c1ccccc1 (stereo not shown)    4
COC(=O)C1C(=O)N(O)C(=O)c2ccccc21 (stereo not shown)    4.9
O=C(NCc1ccccc1)C1C(=O)N(O)C(=O)c2ccccc21 (stereo not shown)    3.9
O=C(Nc1ccc(F)cc1)C1C(=O)N(O)C(=O)c2ccccc21 (stereo not shown)    8.7
CCN(CC)C(=O)C1C(=O)N(O)C(=O)c2ccccc21 (stereo not shown)    3.4

Turning now to a further record.
Fill in: IC50 of O=C(Nc1ccccc1)C1C(=O)N(O)C(=O)c2ccccc21 (stereo not shown) is ___ 3.7
